# Target Entity: Melatonin receptor type 1B (Homo sapiens, UniProt P49286)
# Assay Protocol: Displacement of 2-[125l]-lodomelatonin from human MT2 expressed in CHO cell membrane incubated for 150 mins by radioligand binding assay
# Type: cell membranes
Each item that follows carries a reported log10(Ki).
Heads up: the numbers are on a log10 scale; they represent Ki in nM.

Compound | Target Entity | log10(Ki)
CC(=O)NCCC1CCc2ccc3nc(C)sc3c21 (stereo not given) | Melatonin receptor type 1B (Homo sapiens, UniProt P49286) | -1.07
CC(=O)NCCC1CCc2ccc3ncoc3c21 (stereo not given) | Melatonin receptor type 1B (Homo sapiens, UniProt P49286) | -1.14
CCC(=O)NCCC1CCc2ccn3nc(C)cc3c21 (stereo not given) | Melatonin receptor type 1B (Homo sapiens, UniProt P49286) | -0.02
CCC(=O)NCCC1CCc2ccc3nn(C)cc3c21 (stereo not given) | Melatonin receptor type 1B (Homo sapiens, UniProt P49286) | -0.46

Let's switch to this compound now.
Request: Param item = CC(=O)NCCC1CCc2ccc3nc(Cc4ccccc4)oc3c21 (stereo not given) ; retrieve measured log10(Ki).
Result: -0.92

====

# Target Entity: UniProt:P49286
# Sequence (P49286 whole entry): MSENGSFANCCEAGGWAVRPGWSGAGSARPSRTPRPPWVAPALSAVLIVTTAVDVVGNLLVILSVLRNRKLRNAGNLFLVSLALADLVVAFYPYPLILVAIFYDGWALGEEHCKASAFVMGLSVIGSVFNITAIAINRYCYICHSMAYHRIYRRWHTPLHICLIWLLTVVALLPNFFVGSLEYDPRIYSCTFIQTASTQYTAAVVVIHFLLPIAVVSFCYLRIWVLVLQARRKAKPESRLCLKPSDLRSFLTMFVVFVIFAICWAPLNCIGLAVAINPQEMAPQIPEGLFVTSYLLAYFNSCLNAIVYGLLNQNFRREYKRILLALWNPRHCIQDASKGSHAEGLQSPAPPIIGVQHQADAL
# Assay Protocol: Displacement of 2-[125l]-lodomelatonin from human MT2 expressed in CHO cell membrane incubated for 150 mins by radioligand binding assay
# Assay type: cell membranes
With a cut-off of 0.2 nM, any Ki strictly below it is called TRUE; any Ki meeting it or above is called FALSE.

See these solved cases before continuing.
Compound | Class
CCC(=O)NCCC1CCc2ccc3nc(C)oc3c21 (configuration not stated) | TRUE
CC(=O)NCCC1CCc2ccc3nc(CO)oc3c21 (configuration not stated) | FALSE
CC(=O)NCCC1CCc2ccc3nc(C)oc3c21 (racemic) | TRUE

Request: Field: below-cutoff. Rule: recorded Ki strictly less than 0.2 nM. Subject: CCC(=O)NCCC1CCc2ccc3nc(C)sc3c21 (configuration not stated)
Result: TRUE

Request: Param item: CC(=O)NCCC1CCc2ccc3nn(C)cc3c21 (configuration not stated)
Result: FALSE

====

# Assay Protocol: Drug concentration in Sprague-Dawley rat plasma at 1 mg/kg, po after 60 mins by LC/MS/MS analysis
# Format: ADME, organism-based
Metric Name: concentration at 1 h (ng/mL)
Note: unit ng/mL is implicit; provide only the numeric part.

Request: Param item = CCC(=O)NCC[C@@H]1CCc2ccc3c(c21)CCO3 ; retrieve measured concentration at 1 h.
Result: 15

====

# Target Entity: Melatonin receptor type 1B (Homo sapiens, UniProt P49286)
# Assay Protocol: Agonist activity at human MT2 expressed in CHO-K1 cells assessed as inhibition of forskolin-induced cAMP accumulation incubated for 30 mins by AlphaScreen assay
Metric Name: pEC50
pEC50 is defined as minus the log10 of a concentration measured in mol/L.

Request: Param item = CC(=O)NCC[C@@H]1CCc2ccc3nc(C)oc3c21 ; retrieve measured pEC50.
Result: 9.29
